Listed here: items and their measured pIC50.
system: M. tuberculosis H37Rv growth inhibition with meropenem; assay: dose response, H37Rv, with and without meropenem (AID 434987);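 further: growth over 7 days at 37 °C before Alamar Blue read on day 9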; settings: M. tuberculosis H37Rv growth inhibition; measured here: IC50 without meropenem
In textbook form, pIC50 equals minus log to base ten of the concentration in mol/L.

Example results:
compound	pIC50
CN1c2ccccc2C(=O)NC1c1ccc([N+](=O)[O-])s1 (stereo unspecified)	4.68
COc1ccc(OC(=O)c2cccc([N+](=O)[O-])c2)c(C(=O)/C=C/c2cccs2)c1	4.17

Here's the next entry for you.
Prompt: Record lookup: for M. tuberculosis H37Rv growth inhibition with meropenem, what pIC50 belongs to CCCCNC(=O)c1onc(CSc2ccc(F)c(F)c2)c1C(=O)O ?
Completion: 4.26

====

test system: M. tuberculosis H37Rv growth inhibition with meropenem; test: dose response, H37Rv, with and without meropenem (AID 434987); settings: measured here: IC90 with meropenem;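 further: growth over 7 days at 37 °C before Alamar Blue read on day 9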
value type: IC90

In the examples that follow, each entry is paired with its recorded IC90.
compound	IC90
COC(=O)c1ccc(-c2cc(C(=O)O)c3cc4c(cc3n2)OCCO4)cc1	> 100 µM
COc1cc(OC)c(OC)cc1/C=C1\CCC(C2CCCC2)C1=O (stereo not given)	> 100 µM
CC(C)(C)[C@@H]1C=C(C(=O)Nc2ccccc2)O[C@H](OCc2ccc(CO)cc2)C1	> 100 µM
CC12CCC(C/C1=N\N=C1\NC(=O)/C(=C\c3cccc(Br)c3)S1)C2(C)C (stereo not given)	37.7 µM

Here is the next item to consider.
Prompt: Entry O=c1[nH]c(=S)[nH]c(O)c1N=Nc1ccc2c(c1)OCCO2 : reported IC90 = ?
Completion: > 100 µM

====

test system: M. tuberculosis H37Rv growth inhibition with meropenem; assay: dose response, H37Rv, with and without meropenem (AID 434987);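 further: growth over 7 days at 37 °C before Alamar Blue read on day 9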; details: M. tuberculosis H37Rv growth inhibition; measured here: IC50 without meropenem
value type: IC50 (µM)
Provide the reading as a plain figure in µM.

Check out these entries, answers already filled in.
compound	observed
COc1cccc(CNC(=O)C(Cc2ccccc2)n2cccc2)c1 (stereo not given)	67.4
COc1ccc(S(=O)(=O)N(C(=O)c2ccncc2)c2ccc3oc4c(c3c2)CCCC4)cc1	94.7
S=C(NN=C1C2CC3CC(C2)CC1C3)Nc1ccccc1	48.7
S=C(Nc1ccccc1)Nc1ccc(Cl)cn1	90.6
O=C(Nc1nc2ccccc2n1CCN1CCCC1)C1CCCCC1	23.9

Prompt: Item Nc1nc(Sc2ncccc2[N+](=O)[O-])n[nH]1 has what recorded IC50?
Completion: 37.4

Prompt: IC50 lookup needed for NNC(=O)c1oc2nc(-c3ccco3)cc(-c3ccco3)c2c1N , thanks.
Completion: 23.9

Prompt: Which IC50 is reported for this compound? Cn1c(=O)c2ccccc2n2c(CCl)nnc12
Completion: 3.19

====

system: M. tuberculosis H37Rv growth inhibition with meropenem; experiment: dose response, H37Rv, with and without meropenem (AID 434987);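 further: growth over 7 days at 37 °C before Alamar Blue read on day 9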; conditions: M. tuberculosis H37Rv growth inhibition; measured here: IC50 without meropenem
Reported IC50 is given for each of the following compounds.

compound	target	IC50
CC(NC(=O)CSc1nc2ccccc2c(=O)[nH]1)c1ccccc1 (stereo unspecified)	M. tuberculosis H37Rv growth inhibition with meropenem	23.8 µM
Cc1cc(C(=O)Nc2ccc(Br)cc2F)n(-c2ccccc2)n1	M. tuberculosis H37Rv growth inhibition with meropenem	> 100 µM
COC(=O)/C(=C\Nc1ccc(Cl)cc1Cl)NC(=O)c1ccc(Cl)cc1Cl	M. tuberculosis H37Rv growth inhibition with meropenem	> 100 µM
CCc1ccc(NC(=O)c2c(Cl)nc(C)c(Cl)c2C)cc1	M. tuberculosis H37Rv growth inhibition with meropenem	> 100 µM
Cc1cc(C)cc(SCc2noc(C(=O)NC(C)C)c2C(=O)O)c1	M. tuberculosis H37Rv growth inhibition with meropenem	45.2 µM

Prompt: # input compound: Fc1ccc(C2Nc3cccc4cccc(c34)N2)cc1 ; wanted: its IC50
Completion: > 100 µM

Prompt: Recorded IC50 of Cc1[nH]n(-c2ccccc2)c(=O)c1/C=N/NC(=O)c1cccc([N+](=O)[O-])c1 , please.
Completion: 34.2 µM
